These data points were gathered from patent US20170022281A1.

Molecular target: T1, human PRLR (Biacore antigen) (human, UniProt P16471 25-234, limits assumed)
T1 construct: The construct injected over captured antibody is not described (a soluble form is likely); also called huPRLR
T1 sequence: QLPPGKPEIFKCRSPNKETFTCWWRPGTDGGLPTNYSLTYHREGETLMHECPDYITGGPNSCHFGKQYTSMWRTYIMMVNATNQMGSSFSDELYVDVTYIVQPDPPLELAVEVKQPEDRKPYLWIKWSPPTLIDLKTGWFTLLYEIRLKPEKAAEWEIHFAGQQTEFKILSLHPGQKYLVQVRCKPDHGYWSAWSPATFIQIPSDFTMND
Assay: SPR Biacore
kon values, listed per item
Readout name: kon (M⁻¹ s⁻¹)

| Binder | Display unit | Endpoint value |
| --- | --- | --- |
| Ab9 (antibody, V domains shown, murine monoclonal, isotype G2b; also called murine Ab9) VH: EVQLQQSGPELVRPGASVKISCKASGYSFTDYNMHWVKQSHGKSLEWIGYIYPYNGGAGYNQKFKSKATMNVGISSSTAYMELRSLTSEDSAVYYCARGDGNYVGDMDYWGQGTSVTVSS VL: DIQMTQSPASLSASVGETVTITCRASENIYSYLAWYQQKQGKSPQLLVYNAKTLAEGVPSRFSGSGSGTQFSLKINSLQPEDFGSYYCQHHSGTPFTFGSGTKLEIK | M⁻¹ s⁻¹ | 577000 |
| chAb6 (antibody, human IgG1, kappa, V domains shown, chimeric, murine variable and human G1/kappa constant regions) VH: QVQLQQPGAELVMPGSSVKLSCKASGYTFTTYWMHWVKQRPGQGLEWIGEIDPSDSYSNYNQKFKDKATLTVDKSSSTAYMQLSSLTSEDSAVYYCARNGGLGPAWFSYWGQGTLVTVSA VL: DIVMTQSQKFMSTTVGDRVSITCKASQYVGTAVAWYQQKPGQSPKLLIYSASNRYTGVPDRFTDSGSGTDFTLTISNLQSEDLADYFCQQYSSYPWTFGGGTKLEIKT | M⁻¹ s⁻¹ | 1.14e+06 |
| Ab30 (antibody, human IgG1, kappa, V domains shown, humanized from Ab5; G1; also called Ab2 HC.1a and Ab2 LC.1a) VH: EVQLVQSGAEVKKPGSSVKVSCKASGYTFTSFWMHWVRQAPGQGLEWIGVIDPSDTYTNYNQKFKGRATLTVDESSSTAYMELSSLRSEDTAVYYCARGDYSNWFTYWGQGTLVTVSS VL: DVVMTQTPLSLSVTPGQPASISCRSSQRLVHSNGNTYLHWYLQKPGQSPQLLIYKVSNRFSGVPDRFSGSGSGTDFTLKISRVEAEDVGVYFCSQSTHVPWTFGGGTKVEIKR | M⁻¹ s⁻¹ | 339000 |
| Ab19 (antibody, human IgG1, kappa, V domains shown, humanized from Ab6; G1; also called Ab1 HC.1a and Ab1 LC.1a) VH: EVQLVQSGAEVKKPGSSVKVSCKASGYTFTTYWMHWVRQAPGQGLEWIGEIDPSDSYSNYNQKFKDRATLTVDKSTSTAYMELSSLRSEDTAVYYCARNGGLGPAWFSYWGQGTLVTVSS VL: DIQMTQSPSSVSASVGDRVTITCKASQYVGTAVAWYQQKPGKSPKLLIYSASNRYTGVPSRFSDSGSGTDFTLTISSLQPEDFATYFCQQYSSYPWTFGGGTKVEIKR | M⁻¹ s⁻¹ | 985000 |
| chAb8 (antibody, human IgG1, kappa, V domains shown, chimeric, murine variable and human G1/kappa constant regions) VH: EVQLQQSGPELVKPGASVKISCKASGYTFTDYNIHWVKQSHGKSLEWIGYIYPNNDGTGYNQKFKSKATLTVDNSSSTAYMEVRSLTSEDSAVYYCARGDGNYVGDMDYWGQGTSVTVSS VL: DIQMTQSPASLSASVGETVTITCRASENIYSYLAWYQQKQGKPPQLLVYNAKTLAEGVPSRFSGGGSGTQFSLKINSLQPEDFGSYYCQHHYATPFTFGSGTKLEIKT | M⁻¹ s⁻¹ | 496000 |
